Listed binders paired with reported Kd
Molecular target: T1, EsCas13d, nuclease-dead (Eubacterium siraeum, UniProt B0MS50, R295A;H300A;R849A;H854A)
T1 sequence: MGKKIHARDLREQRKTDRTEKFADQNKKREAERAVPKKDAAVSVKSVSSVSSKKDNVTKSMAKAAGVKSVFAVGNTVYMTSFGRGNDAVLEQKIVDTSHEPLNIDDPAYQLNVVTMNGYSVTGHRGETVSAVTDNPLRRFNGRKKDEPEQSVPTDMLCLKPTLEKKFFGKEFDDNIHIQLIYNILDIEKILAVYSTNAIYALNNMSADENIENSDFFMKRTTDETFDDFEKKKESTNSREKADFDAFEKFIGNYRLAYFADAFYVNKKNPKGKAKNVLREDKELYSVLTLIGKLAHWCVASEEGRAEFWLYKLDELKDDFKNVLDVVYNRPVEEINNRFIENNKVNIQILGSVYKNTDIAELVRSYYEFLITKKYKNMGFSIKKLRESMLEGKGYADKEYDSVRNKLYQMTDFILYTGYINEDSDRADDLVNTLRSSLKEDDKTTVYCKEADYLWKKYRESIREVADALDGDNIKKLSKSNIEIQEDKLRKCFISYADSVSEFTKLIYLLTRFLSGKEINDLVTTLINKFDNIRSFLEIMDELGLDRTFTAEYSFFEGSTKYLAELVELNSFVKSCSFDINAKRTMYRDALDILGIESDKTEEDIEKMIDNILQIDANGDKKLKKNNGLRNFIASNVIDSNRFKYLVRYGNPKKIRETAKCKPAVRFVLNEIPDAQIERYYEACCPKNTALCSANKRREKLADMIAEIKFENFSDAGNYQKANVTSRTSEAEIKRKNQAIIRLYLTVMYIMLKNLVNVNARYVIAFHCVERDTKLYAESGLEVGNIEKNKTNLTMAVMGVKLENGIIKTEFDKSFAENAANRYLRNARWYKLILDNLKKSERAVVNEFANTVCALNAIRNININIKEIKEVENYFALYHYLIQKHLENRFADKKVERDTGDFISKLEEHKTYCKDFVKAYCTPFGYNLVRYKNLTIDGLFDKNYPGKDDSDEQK
Experiment: crRNA (strand 1, pre-loaded); Mg2+; 40 mM Tris-HCl pH 7.5, 150 mM NaCl, 6 mM MgCl2, 1 mM DTT, 0.1% Tween-20, 0.2 mg/ml BSA; 25 C; 10 min per concentration, then washed
Details: tags: His6-TwinStrep-SUMO cleaved; N-terminal SNAP kept (SNAP-Surface 488); label: 3' end held by stalled T7 RNA polymerase
Property name: Kd

# Binder, Assay value
records = [
    ("target 1 MT 5'PFS CCU 3'PFS UUG (mixed) RNA 1: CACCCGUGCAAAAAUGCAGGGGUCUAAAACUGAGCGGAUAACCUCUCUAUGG RNA 2: GGGAAUGGAUCCACAUCUACGAAUUCCCUCCAUAGAGAGGUUAUCCGCUCAUUGAGAUCGGAAGAGCACACGU", "11.7 nM"),
    ("target 1 MT 5'PFS CAU 3'PFS UUA (mixed) RNA 1: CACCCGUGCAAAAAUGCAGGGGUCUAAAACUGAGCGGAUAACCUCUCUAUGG RNA 2: GGGAAUGGAUCCACAUCUACGAAUUCCAUCCAUAGAGAGGUUAUCCGCUCAUUAAGAUCGGAAGAGCACACGU", "~70 nM"),
]
